- experimental target: Alpha-glucosidase (Saccharomyces cerevisiae S288c) (UniProt P53341+P38158+P07265)
- test details: Inhibition of yeast alpha glucosidase at 50 uM relative to control
- Assay type: protein assay
readout type: inhibition

Field: example entries. Status: answers known.
> print(dat)
                                 smiles.repr  readout.type  endpoint.value
 1  Cc1coc2c3ccc4c(c3c3oc(Cc5ccccc5)nc3c12)CCCC4(C)C    inhibition           > 80%
 2  Cc1coc2c3ccc4c(c3c3oc(Cc5ccc(O)cc5)nc3c12)CCCC4(C)C    inhibition           > 80%
 3  Cc1coc2c3ccc4c(c3c3oc(-c5ccc(C(F)(F)F)cc5)nc3c12)CCCC4(C)C    inhibition           > 80%
 4  Cc1coc2c3ccc4c(c3c3oc(-c5ccc(Cl)cc5)nc3c12)CCCC4(C)C    inhibition           > 80%
 5  Cc1coc2c3ccc4c(c3c3oc(-c5ccccc5C(F)(F)F)nc3c12)CCCC4(C)C    inhibition           < 80%
 6  Cc1coc2c3ccc4c(c3c3oc(Cc5ccc(O)c(O)c5)nc3c12)CCCC4(C)C    inhibition           > 80%
 7  Cc1coc2c3ccc4c(c3c3oc(CCc5ccccc5)nc3c12)CCCC4(C)C    inhibition           > 80%
 8  COc1cc(-c2nc3c(o2)c2c4c(ccc2c2occ(C)c32)C(C)(C)CCC4)ccc1O    inhibition           < 80%
 9  COc1ccc(-c2nc3c(o2)c2c4c(ccc2c2occ(C)c32)C(C)(C)CCC4)c(OC)c1    inhibition           < 80%
10  Cc1coc2c3ccc4c(c3c3oc(-c5ccccc5F)nc3c12)CCCC4(C)C    inhibition           < 80%

Problem: Given the entry "Cc1coc2c1C(=O)C(=O)c1c-2ccc2c1CCCC2(C)C" , report its measured inhibition.
Solution: > 80%

Problem: Param item: "Cc1coc2c3ccc4c(c3c3oc(CCCc5ccccc5)nc3c12)CCCC4(C)C"
Solution: < 80%

Problem: Query "Cc1coc2c3ccc4c(c3c3oc(-c5ccc(Br)cc5)nc3c12)CCCC4(C)C" next
Solution: < 80%

Problem: Now the same for "Cc1coc2c3ccc4c(c3c3oc(-c5ccc(Cl)c(Cl)c5)nc3c12)CCCC4(C)C"
Solution: > 80%

Problem: And then "Cc1coc2c3ccc4c(c3c3oc(-c5ccccc5)nc3c12)CCCC4(C)C" , what is it?
Solution: > 80%

* * *

- experimental target: Alpha-glucosidase (Saccharomyces cerevisiae S288c, UniProt P53341+P38158+P07265)
- test details: Inhibition of yeast alpha-glucosidase
- Assay type: protein assay
readout type: IC50 (µM)
Please respond with the number in µM and leave the unit unwritten.

> print(dat)
                                smiles.repr  readout.type  endpoint.value
1  Cc1coc2c3ccc4c(c3c3oc(-c5ccc(C(F)(F)F)cc5)nc3c12)CCCC4(C)C          IC50            2.33
2  Cc1coc2c3ccc4c(c3c3oc(Cc5ccc(O)cc5)nc3c12)CCCC4(C)C          IC50            3.21
3  Cc1coc2c3ccc4c(c3c3oc(-c5ccccc5)nc3c12)CCCC4(C)C          IC50            3.51

Next, consider the following compound.
Problem: Quick check: IC50 on Alpha-glucosidase (Saccharomyces cerevisiae S288c, UniProt P53341+P38158+P07265), item "Cc1coc2c1C(=O)C(=O)c1c-2ccc2c1CCCC2(C)C" ?
Solution: 11.39
